Below, each entry is listed alongside its reported molar heat capacity at constant pressure.
assay: molar heat capacity at constant pressure; conditions: 350.15 K; 101.33 kPa; Liquid; Small sample (50 mg) DSC
Value expressed in J/K/mol; do not type the unit.

Would you please look over these solved cases?
# COMPOUND, OBSERVABLE, RECORDED_RESULT
measured = [
    ("CCCCCC[n+]1ccn(C)c1.O=S(=O)([N-]S(=O)(=O)C(F)(F)F)C(F)(F)F", "molar heat capacity at constant pressure", 688),
    ("CCCCCCCCn1cc[n+](C)c1.O=S(=O)([O-])C(F)(F)F [1-octyl-3-methylimidazolium trifluoromethanesulfonate]", "molar heat capacity at constant pressure", 627),
    ("CCn1cc[n+](C)c1.O=S(=O)([O-])C(F)(F)F [1-ethyl-3-methylimidazolium trifluoromethanesulfonate]", "molar heat capacity at constant pressure", 397),
    ("CCCCCCn1cc[n+](C)c1.O=S(=O)([O-])C(F)(F)F [1-hexyl-3-methylimidazolium trifluoromethanesulfonate]", "molar heat capacity at constant pressure", 545),
    ("CCCC[n+]1ccccc1.O=S(=O)([N-]S(=O)(=O)C(F)(F)F)C(F)(F)F [1-butylpyridinium bis[(trifluoromethyl)sulfonyl]imide]", "molar heat capacity at constant pressure", 600),
]

Ask | Bench note: what molar heat capacity at constant pressure did CCCCn1cc[n+](C)c1.O=S(=O)([O-])C(F)(F)F [1-butyl-3-methylimidazolium trifluoromethanesulfonate] show?
Reply | 465

Ask | Next record, please: c1ccccc1
Reply | 151.2

Ask | Next record, please: O
Reply | 75.43

* * *

assay: molar heat capacity at constant pressure; conditions: 415.15 K; 101.33 kPa; Liquid; Small sample (50 mg) DSC
± gives the expanded uncertainty stated by the source.
Below, each entry is listed alongside its reported molar heat capacity at constant pressure.
Be sure to follow the number with its unit.

# COMPOUND, molar heat capacity at constant pressure
rows = [
    ("CCCCCCn1cc[n+](C)c1.O=S(=O)([O-])C(F)(F)F [1-hexyl-3-methylimidazolium trifluoromethanesulfonate]", "583 ± 30 J/K/mol"),
]

Ask | Bench note: what molar heat capacity at constant pressure did CCCC[n+]1ccccc1.O=S(=O)([N-]S(=O)(=O)C(F)(F)F)C(F)(F)F [1-butylpyridinium bis[(trifluoromethyl)sulfonyl]imide] show?
Reply | 635 ± 33 J/K/mol

Ask | Next record, please: CCCCCC[n+]1ccn(C)c1.O=S(=O)([N-]S(=O)(=O)C(F)(F)F)C(F)(F)F
Reply | 732 ± 38 J/K/mol

Ask | Next record, please: CCCCCCCCn1cc[n+](C)c1.O=S(=O)([O-])C(F)(F)F [1-octyl-3-methylimidazolium trifluoromethanesulfonate]
Reply | 673 ± 35 J/K/mol

Ask | Next record, please: CCn1cc[n+](C)c1.O=S(=O)([O-])C(F)(F)F [1-ethyl-3-methylimidazolium trifluoromethanesulfonate]
Reply | 422 ± 22 J/K/mol

Ask | Next record, please: CCCCn1cc[n+](C)c1.O=S(=O)([O-])C(F)(F)F [1-butyl-3-methylimidazolium trifluoromethanesulfonate]
Reply | 500 ± 26 J/K/mol

* * *

experiment: molar heat capacity at constant pressure; conditions: 360.15 K; 101.33 kPa; Liquid; Small sample (50 mg) DSC
± gives the expanded uncertainty stated by the source.
OBSERVABLE: molar heat capacity at constant pressure

Would you please look over these solved cases?
# COMPOUND, OBSERVABLE, RECORDED_RESULT
rows = [
    ("CCCC[n+]1ccccc1.O=S(=O)([N-]S(=O)(=O)C(F)(F)F)C(F)(F)F [1-butylpyridinium bis[(trifluoromethyl)sulfonyl]imide]", "molar heat capacity at constant pressure", "605 ± 31 J/K/mol"),
    ("CCCCCCCCn1cc[n+](C)c1.O=S(=O)([O-])C(F)(F)F [1-octyl-3-methylimidazolium trifluoromethanesulfonate]", "molar heat capacity at constant pressure", "634 ± 33 J/K/mol"),
    ("CCCCCC[n+]1ccn(C)c1.O=S(=O)([N-]S(=O)(=O)C(F)(F)F)C(F)(F)F", "molar heat capacity at constant pressure", "693 ± 36 J/K/mol"),
    ("O", "molar heat capacity at constant pressure", "75.59 ± 3.9 J/K/mol"),
    ("CCCCCCn1cc[n+](C)c1.O=S(=O)([O-])C(F)(F)F [1-hexyl-3-methylimidazolium trifluoromethanesulfonate]", "molar heat capacity at constant pressure", "551 ± 29 J/K/mol"),
    ("CCn1cc[n+](C)c1.O=S(=O)([O-])C(F)(F)F [1-ethyl-3-methylimidazolium trifluoromethanesulfonate]", "molar heat capacity at constant pressure", "401 ± 21 J/K/mol"),
]

Pending compound:
Ask | Bench note: what molar heat capacity at constant pressure did CCCCn1cc[n+](C)c1.O=S(=O)([O-])C(F)(F)F [1-butyl-3-methylimidazolium trifluoromethanesulfonate] show?
Reply | 470 ± 24 J/K/mol

* * *

assay: molar heat capacity at constant pressure; conditions: 328.15 K; 101.33 kPa; Liquid; modulated-temperature differential scanning calorimetry MDSC
OBSERVABLE: molar heat capacity at constant pressure (J/K/mol)
Value expressed in J/K/mol; do not type the unit.

Would you please look over these solved cases?
# COMPOUND, RECORDED_RESULT
measured = [
    ("CCCCn1cc[n+](C)c1.O=S(=O)([O-])C(F)(F)F [1-butyl-3-methylimidazolium trifluoromethanesulfonate]", 443),
    ("CCCCCCCCn1cc[n+](C)c1.O=S(=O)([O-])C(F)(F)F [1-octyl-3-methylimidazolium trifluoromethanesulfonate]", 599),
]

Pending compound:
Ask | Bench note: what molar heat capacity at constant pressure did CCCCCCn1cc[n+](C)c1.O=S(=O)([O-])C(F)(F)F [1-hexyl-3-methylimidazolium trifluoromethanesulfonate] show?
Reply | 519

* * *

assay: molar heat capacity at constant pressure; conditions: 380.15 K; 101.33 kPa; Liquid; Small sample (50 mg) DSC
OBSERVABLE: molar heat capacity at constant pressure (J/K/mol)
Value expressed in J/K/mol; do not type the unit.

# COMPOUND, OBSERVABLE, UNIT_DESCRIPTOR, RECORDED_RESULT
rows = [
    ("CCCC[n+]1ccccc1.O=S(=O)([N-]S(=O)(=O)C(F)(F)F)C(F)(F)F [1-butylpyridinium bis[(trifluoromethyl)sulfonyl]imide]", "molar heat capacity at constant pressure", "J/K/mol", 616),
    ("CCCCCCn1cc[n+](C)c1.O=S(=O)([O-])C(F)(F)F [1-hexyl-3-methylimidazolium trifluoromethanesulfonate]", "molar heat capacity at constant pressure", "J/K/mol", 562),
    ("CCCCCCCCn1cc[n+](C)c1.O=S(=O)([O-])C(F)(F)F [1-octyl-3-methylimidazolium trifluoromethanesulfonate]", "molar heat capacity at constant pressure", "J/K/mol", 648),
    ("CCCCn1cc[n+](C)c1.O=S(=O)([O-])C(F)(F)F [1-butyl-3-methylimidazolium trifluoromethanesulfonate]", "molar heat capacity at constant pressure", "J/K/mol", 481),
    ("CCn1cc[n+](C)c1.O=S(=O)([O-])C(F)(F)F [1-ethyl-3-methylimidazolium trifluoromethanesulfonate]", "molar heat capacity at constant pressure", "J/K/mol", 409),
]

Pending compound:
Ask | Bench note: what molar heat capacity at constant pressure did CCCCCC[n+]1ccn(C)c1.O=S(=O)([N-]S(=O)(=O)C(F)(F)F)C(F)(F)F show?
Reply | 706

* * *

experiment: molar heat capacity at constant pressure; settings: 343.15 K; 101.33 kPa; Liquid; modulated-temperature differential scanning calorimetry MDSC
Numbers after ± are expanded uncertainties.
Below, each entry is listed alongside its reported molar heat capacity at constant pressure.

# MOLECULE, molar heat capacity at constant pressure
rows = [
    ("CCCCCCCCn1cc[n+](C)c1.O=S(=O)([O-])C(F)(F)F [1-octyl-3-methylimidazolium trifluoromethanesulfonate]", "609 ± 30 J/K/mol"),
    ("CCCCCC[n+]1ccn(C)c1.O=S(=O)([N-]S(=O)(=O)C(F)(F)F)C(F)(F)F", "689 ± 34 J/K/mol"),
    ("CCCC[n+]1ccccc1.O=S(=O)([N-]S(=O)(=O)C(F)(F)F)C(F)(F)F [1-butylpyridinium bis[(trifluoromethyl)sulfonyl]imide]", "610 ± 31 J/K/mol"),
    ("CCCCCCn1cc[n+](C)c1.O=S(=O)([O-])C(F)(F)F [1-hexyl-3-methylimidazolium trifluoromethanesulfonate]", "528 ± 26 J/K/mol"),
    ("CCn1cc[n+](C)c1.O=S(=O)([O-])C(F)(F)F [1-ethyl-3-methylimidazolium trifluoromethanesulfonate]", "398 ± 20 J/K/mol"),
]

Pending molecule:
Ask | Bench note: what molar heat capacity at constant pressure did CCCCn1cc[n+](C)c1.O=S(=O)([O-])C(F)(F)F [1-butyl-3-methylimidazolium trifluoromethanesulfonate] show?
Reply | 450 ± 23 J/K/mol

* * *

assay: molar heat capacity at constant pressure; details: 325.15 K; 101.33 kPa; Liquid; Small sample (50 mg) DSC
OBSERVABLE: molar heat capacity at constant pressure (J/K/mol)
Value expressed in J/K/mol; do not type the unit.

# COMPOUND, molar heat capacity at constant pressure [J/K/mol]
measured = [
    ("C1CCOC1 [tetrahydrofuran]", 130.5),
    ("CCCCn1cc[n+](C)c1.O=S(=O)([O-])C(F)(F)F [1-butyl-3-methylimidazolium trifluoromethanesulfonate]", 452),
]

Ask | Bench note: what molar heat capacity at constant pressure did c1ccccc1 show?
Reply | 142.5

Ask | Next record, please: CCn1cc[n+](C)c1.O=S(=O)([O-])C(F)(F)F [1-ethyl-3-methylimidazolium trifluoromethanesulfonate]
Reply | 390

Ask | Next record, please: CCCCCC[n+]1ccn(C)c1.O=S(=O)([N-]S(=O)(=O)C(F)(F)F)C(F)(F)F
Reply | 675

Ask | Next record, please: CCCCCCCCn1cc[n+](C)c1.O=S(=O)([O-])C(F)(F)F [1-octyl-3-methylimidazolium trifluoromethanesulfonate]
Reply | 612

Ask | Next record, please: O
Reply | 75.01

Ask | Next record, please: CCCCCCn1cc[n+](C)c1.O=S(=O)([O-])C(F)(F)F [1-hexyl-3-methylimidazolium trifluoromethanesulfonate]
Reply | 530
